Reference source for all entries: patent US4226883A

Item-by-item account of death ratio (%), mixture with Methomyl
- Tested on: green rice leafhoppers of the strain RN
- Test details: Test Example 3: dust spray test (20 mesh metal gauze cylinder)
- Format: in vivo, Nephotettix cincticeps
- Condition summary: Table 9; dust mixed with Methomyl; RN
Value and unit, in that order.

Illustrative cases are given below, each with its answer.
>>> observed_result("CNC(=O)Oc1ccccc1OC [Compound 76, reference compound]")
"55.0%"
>>> observed_result("C=CCNC(=O)Oc1ccccc1OC(C)C [Compound 85, 2-isopropoxyphenyl-N-allylcarbamate]")
"90.0%"
>>> observed_result("CCCNC(=O)Oc1ccccc1OCC [Compound 80, 2-ethoxyphenyl-N-n-propylcarbamate]")
"75.0%"
>>> observed_result("CCCCNC(=O)Oc1ccccc1OC(C)C")
"70.0%"

Which death ratio (%), mixture with Methomyl reading was recorded for the compound CCCNC(=O)Oc1ccccc1OC(C)C [Compound 83, 2-isopropoxyphenyl-N-n-propylcarbamate] ?
100%

Field entry: CCOc1cccc(OC(=O)NC)c1 [Compound 92, reference compound]
40.0%

###

- System: green rice leafhoppers of the strain RN
- Test details: Test Example 3: dust spray test (20 mesh metal gauze cylinder)
- Assay type: in vivo, Nephotettix cincticeps
- Condition summary: Table 9; dust mixed with 35*; RN
Readout: death ratio (%), mixture with Compound No. 35*
Please format your answer as a value with the unit trailing.

Check out these entries, answers already filled in.
>>> observed_result("CNC(=O)Oc1ccccc1OC [Compound 76, reference compound]")
"10.0%"
>>> observed_result("CNC(=O)Oc1ccccc1OC(C)C [Compound 81, 2-isopropoxyphenyl-N-methylcarbamate, reference compound]")
"15.0%"

We next turn to a different molecule, shown below.
API: value(readout= death ratio (%), mixture with Compound No. 35*, system= green rice leafhoppers of the strain RN, query= CCCCNC(=O)Oc1ccccc1OC(C)C )
10.0%

###

- Study target: cholinesterase (ChE), resistant strain
- Type: biochemical, green rice leafhopper, Nephotettix cincticeps
- Condition summary: resistant strain; 50% inhibition concentration; 30° C. 30 min with inhibitor; read-out: Inhibition of Cholinesterase I50 (M) R
Readout: IC50 (M)
Return type: number; implicit unit M.

// worked examples, IC50 included
>>> observed_result("C=CCOc1ccccc1OC(=O)NC [Compound 88, reference compound]")
0.00011
>>> observed_result("CCNC(=O)Oc1ccccc1C(C)C [Compound 2, 2-isopropylpheny-N-ethylcarbamate]")
"5.2e-05"
>>> observed_result("CCNC(=O)Oc1cccc(C(C)CC)c1 (centres unmarked)")
"5.6e-06"

Moving on to the next compound.
Could you tell me which IC50 is on file for CCCNC(=O)Oc1ccccc1 [Compound 142, phenyl-N-n-propylcarbamate] ?
0.00066

###

- Study target: cholinesterase (ChE), resistant strain
- Type: biochemical, green rice leafhopper, Nephotettix cincticeps
- Condition summary: resistant strain; 50% inhibition concentration; 30° C. 30 min with inhibitor; read-out: Inhibition of Cholinesterase I50 (M) R
IC50 values by entry
Field: numeric (M). Do not append units.

Illustrative cases are given below, each with its answer.
>>> observed_result("C=CCNC(=O)Oc1cccc(C(C)CCC)c1 (stereo not drawn)")
"1.3e-06"
>>> observed_result("CCc1ccc(OC(=O)NC)cc1CC [Compound 50, reference compound]")
"5.1e-05"
>>> observed_result("CNC(=O)Oc1ccc(SC)c(C)c1 [Compound 135, reference compound]")
"3.5e-05"

# get_value(readout='IC50', item= CNC(=O)Oc1cccc(C(C)(C)C)c1 [Compound 32, 3-tert-butylphenyl-N-methylcarbamate, reference compound] )
1.2e-05

Same for C#CCOc1cccc(OC(=O)NC)c1 [Compound 100, reference compound]
0.00085

Repeat with CCOc1cccc(OC(=O)NC)c1 [Compound 92, reference compound]
0.0003

CCCCNC(=O)Oc1cc(C)cc(C)c1 ?
2.7e-05

Also CCCCNC(=O)Oc1cc(C)cc(C(C)C)c1 ?
8.8e-05

What do we get for C=CCNC(=O)Oc1cccc(C(C)(C)C)c1 ?
8.9e-06

Here is the next compound: CCCCNC(=O)Oc1ccc(C)c(C)c1
2e-05

Try this compound next: CCNC(=O)Oc1cccc(C(C)C)c1
1.7e-05

Continue with CCNC(=O)Oc1cccc(CC)c1
0.00016

Please do the same for CCCCNC(=O)Oc1cccc(C(C)CCC)c1 (stereo not drawn) as well.
6.3e-06

Further, for CCCCNC(=O)Oc1cccc(C)c1 ?
0.00027

// same read-out, input: CCCC(C)c1cccc(OC(=O)NCC)c1 (stereo not drawn)
4.1e-06

Similarly, C=CCOc1cccc(OC(=O)NC)c1 [Compound 98, reference compound] ?
0.00036

###

- Study target: cholinesterase (ChE), susceptible strain
- Test details: Inhibition of cholinesterase (acetylthiocholine method), susceptible strain enzyme
- Assay type: biochemical, green rice leafhopper, Nephotettix cincticeps
- Condition summary: 50% inhibition concentration, 30° C. 30 min with inhibitor, read-out: Inhibition of Cholinesterase I50 (M) S
Below is a list of entries, each paired with its recorded IC50 value.
Give your result in M as a bare value.

>>> observed_result("CCCCNC(=O)Oc1cccc(C(C)CC)c1 (centres unmarked)")
"5e-05"
>>> observed_result("CNC(=O)Oc1ccccc1NC(C)C [Compound 110, reference compound]")
"2.3e-06"
>>> observed_result("CCCCNC(=O)Oc1cccc(C(C)CCC)c1 (centres unmarked)")
"5.1e-05"

Moving on to the next molecule.
Which IC50 is reported with cholinesterase (ChE), susceptible strain for this entry: CCOc1cccc(OC(=O)NC)c1 [Compound 92, reference compound] ?
1.7e-05

###

Parameter: Effect of individual compound (RN), death ratio (%) (Table 9). Scope: all listed entries.
- System: green rice leafhoppers of the strain RN
- Test details: Test Example 3: dust spray test (20 mesh metal gauze cylinder)
- Assay type: in vivo, Nephotettix cincticeps
- Condition summary: dust; compound alone; RN strain
Enter your answer as a number in %; do not include the unit.

Worked cases, Effect of individual compound (RN), death ratio (%) (Table 9) given:
>>> observed_result("CNC(=O)Oc1cccc(C)c1 [Compound 24, 3-methylphenyl-N-methylcarbamate, reference compound]")
0
>>> observed_result("CCCNC(=O)Oc1ccccc1OC(C)C [Compound 83, 2-isopropoxyphenyl-N-n-propylcarbamate]")
20.0

Field: next compound
Kindly state the measured Effect of individual compound (RN), death ratio (%) (Table 9) obtained for CNC(=O)Oc1ccccc1OC [Compound 76, reference compound] with green rice leafhoppers of the strain RN.
0

###

- Tested on: green rice leafhoppers of the strain RN
- Test details: Test Example 3: dust spray test (20 mesh metal gauze cylinder)
- Assay type: in vivo, Nephotettix cincticeps
- Condition summary: Table 9; dust mixed with 24*; RN
Binary call on death ratio (%), mixture with Compound No. 24* with cut-off 20%: strictly below means YES, and equality or higher means NO.

>>> category_label("CCCNC(=O)Oc1ccccc1OC [Compound 77, 2-methoxyphenyl-N-n-propylcarbamate]")
"NO"
>>> category_label("CCOc1cccc(OC(=O)NC)c1 [Compound 92, reference compound]")
"YES"
>>> category_label("CCNC(=O)Oc1ccccc1OC(C)C [Compound 82, 2-isopropoxyphenyl-N-ethylcarbamate]")
"NO"
>>> category_label("CCCNC(=O)Oc1ccccc1OC(C)C [Compound 83, 2-isopropoxyphenyl-N-n-propylcarbamate]")
"NO"
>>> category_label("CCCCNC(=O)Oc1ccccc1OC(C)C [Compound 84]")
"YES"

Determine if CNC(=O)Oc1ccccc1OC(C)C [Compound 81, 2-isopropoxyphenyl-N-methylcarbamate, reference compound] shows death ratio (%), mixture with Compound No. 24* strictly lower than 20%.
YES

// repeat for CCCNC(=O)Oc1ccccc1OCC [Compound 80, 2-ethoxyphenyl-N-n-propylcarbamate] and report
NO

###

- Tested on: green rice leafhoppers of the strain RN
- Test details: Test Example 3: dust spray test (20 mesh metal gauze cylinder)
- Assay type: in vivo, Nephotettix cincticeps
- Condition summary: Table 9; dust mixed with 24*; RN
Readout: death ratio (%), mixture with Compound No. 24*
I only need the number, in %, no unit after it.

Before answering, review these 2 worked examples.
>>> observed_result("C=CCNC(=O)Oc1ccccc1OC(C)C [Compound 85, 2-isopropoxyphenyl-N-allylcarbamate]")
35.0
>>> observed_result("CCCNC(=O)Oc1cccc(OCC)c1 [Compound 94, 3-ethoxyphenyl-N-n-propylcarbamate]")
95.0

# context switch: different molecule, same death ratio (%), mixture with Compound No. 24*
Return death ratio (%), mixture with Compound No. 24* measured with green rice leafhoppers of the strain RN given this molecule: CCOc1ccccc1OC(=O)NC [Compound 79, reference compound]
0

###

- Test system: green rice leafhoppers of the strain RN
- Test details: Test Example 3: dust spray test (20 mesh metal gauze cylinder)
- Assay type: in vivo, Nephotettix cincticeps
- Condition summary: Table 9; dust mixed with 118*; RN
Readout: death ratio (%), mixture with Compound No. 118*
Could you give me the number in %? Just the number is fine.

Worked examples, 2 compounds total:
>>> observed_result("CCNC(=O)Oc1ccccc1OC(C)C [Compound 82, 2-isopropoxyphenyl-N-ethylcarbamate]")
80.0
>>> observed_result("C=CCNC(=O)Oc1ccccc1OC(C)C [Compound 85, 2-isopropoxyphenyl-N-allylcarbamate]")
35.0

Now consider a different compound.
Entry under review: CCOc1ccccc1OC(=O)NC [Compound 79, reference compound] . Reported death ratio (%), mixture with Compound No. 118*?
25.0
